system: SK-MEL-5 melanoma; experiment: NCI-60 one-dose screen, 48 h (100 = growth as untreated, 0 = no growth, -100 = all killed); conditions: 10 µM unless noted
This is part of a sample that, as a whole, favours compounds with a hit. Of some 83,000 tested, about 20% had one in any assay.
# note: exactly -40% is not below, so it is not met; use met for growth strictly under it

Some entries whose results are on file:
Cc1cc2c(C(=O)NCC#N)cccc2n1-c1nc2c(c(NCc3ccccc3)n1)CCCC2: met
O=[N+]([O-])CC(c1ccccc1F)c1c[nH]c2ccccc12 (centres undefined): not met
N/C(=N\C(N)=N\c1nc2ccccc2s1)c1ccnc(Br)c1: not met
Cc1cccc(C)c1N=c1oc2ccc(Cl)cc2nc1-c1ccccc1O: not met
COc1cc(NC(C)CCCNC(=O)CCC(=O)NCCCNCCCCCCCCNCCCNC(=O)CCC(=O)NCCCC(C)Nc2cc(OC)cc3cccnc23)c2ncccc2c1 (centres undefined): not met

Prompt line: Does this compound meet the criterion growth < -40%? CCOC(=O)[C@@H]1CCCN(S(=O)(=O)c2ccc(S(=O)(=O)N(CC)CC)c(F)c2)C1
Response line: not met
